Molecular target: fMet-Leu-Phe receptor (Homo sapiens, UniProt P21462)
Sequence (P21462 whole entry): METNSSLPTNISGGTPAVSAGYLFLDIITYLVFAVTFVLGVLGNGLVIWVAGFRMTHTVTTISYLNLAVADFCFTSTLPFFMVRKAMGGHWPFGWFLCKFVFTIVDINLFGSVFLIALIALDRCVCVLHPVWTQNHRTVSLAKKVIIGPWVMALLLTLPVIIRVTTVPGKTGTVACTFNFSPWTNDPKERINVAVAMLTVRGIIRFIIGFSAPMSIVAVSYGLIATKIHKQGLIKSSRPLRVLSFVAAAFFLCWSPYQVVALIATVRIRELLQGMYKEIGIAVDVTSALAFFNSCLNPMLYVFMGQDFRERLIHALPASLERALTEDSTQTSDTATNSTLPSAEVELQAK
Assay: FPR ligands, dose response (AID 519)
Type: functional
Activity calls are given as the source filed them.
Form field: Ki (one value per entry).
quantity-measured: Ki

>  <molecule>
CCOc1cc(C(=O)NCc2nnc(SCC(=O)OC)n2C)cc(OCC)c1OCC

>  <value-reported>
> 66.7 µM (inactive)

$$$$
>  <molecule>
O=C(C1=C(O)C(=O)N(CC2CCCO2)C1c1cccnc1)c1ccco1 (stereo not given)

>  <value-reported>
54.8 µM (inactive)

$$$$
>  <molecule>
CCSc1nnc(NC(=O)CSc2nnc(Cc3cccn3C)n2CCc2ccccc2)s1

>  <value-reported>
> 66.7 µM (inactive)

$$$$
>  <molecule>
CCOC(=O)CCn1nc(-c2ccc(Cl)cc2)cc1N

>  <value-reported>
> 66.7 µM (inactive)

$$$$
>  <molecule>
CCc1nn2c(=O)cc(CSc3nc4sc5c(c4c(=O)n3C)CCCC5)nc2s1

>  <value-reported>
> 66.7 µM (inactive)

$$$$

###

Form field: EC50 (one value per entry).
Target: Heat shock factor protein 1 (Mus musculus, UniProt P38532)
Sequence (P38532 whole entry): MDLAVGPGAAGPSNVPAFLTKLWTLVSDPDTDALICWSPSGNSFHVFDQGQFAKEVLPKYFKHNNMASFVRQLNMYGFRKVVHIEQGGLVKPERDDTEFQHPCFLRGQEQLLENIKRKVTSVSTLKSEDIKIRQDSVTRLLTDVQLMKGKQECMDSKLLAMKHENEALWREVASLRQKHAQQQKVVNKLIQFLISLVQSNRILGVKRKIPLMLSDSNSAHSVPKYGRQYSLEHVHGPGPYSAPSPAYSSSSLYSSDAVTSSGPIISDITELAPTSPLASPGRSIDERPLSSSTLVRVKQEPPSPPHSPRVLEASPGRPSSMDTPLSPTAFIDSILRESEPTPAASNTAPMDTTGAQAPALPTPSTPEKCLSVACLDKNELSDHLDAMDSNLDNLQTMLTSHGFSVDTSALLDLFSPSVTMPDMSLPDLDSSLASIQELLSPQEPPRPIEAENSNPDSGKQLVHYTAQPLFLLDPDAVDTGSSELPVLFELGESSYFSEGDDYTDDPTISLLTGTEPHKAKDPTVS
Test: HSF1 potentiators in luciferase reporter cells, confirmation, cell-based, NIH3T3, luminescence, dose retest (AID 435004);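 note: stress induced by proteasome inhibitor MG132 added 30 min after compound; luciferase reporter driven by HSF1 response element in NIH3T3 cells; actives raise luminescence as potentiators of the MG132 stress response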
Format: functional
Calls of active or inactive are those of the source.

>  <molecule>
O=C(c1ccco1)N(Cc1ccc([N+](=O)[O-])cc1)c1ccc(Br)cc1

>  <test-system>
Heat shock factor protein 1 (Mus musculus, UniProt P38532)

>  <EC50>
> 260 µM (inactive)

$$$$
>  <molecule>
Cc1cccc(S(=O)(=O)NCCC(=O)OC(C)C(=O)NC(=O)NC2CCCCC2)c1 (stereo unspecified)

>  <test-system>
Heat shock factor protein 1 (Mus musculus, UniProt P38532)

>  <EC50>
> 260 µM (inactive)

$$$$
>  <molecule>
Cc1cc(F)c(F)c(C(=O)N2CCOCC2)c1Cl

>  <test-system>
Heat shock factor protein 1 (Mus musculus, UniProt P38532)

>  <EC50>
> 260 µM (inactive)

$$$$
>  <molecule>
CC(=O)Nc1ccc2c(c1)N(C(=O)CN(C)C)c1ccccc1CC2

>  <test-system>
Heat shock factor protein 1 (Mus musculus, UniProt P38532)

>  <EC50>
> 260 µM (inactive)

$$$$
>  <molecule>
COc1ccc(C(=O)CC(=O)C(=O)Nc2cc(OC)c(OC)c(OC)c2)cc1

>  <test-system>
Heat shock factor protein 1 (Mus musculus, UniProt P38532)

>  <EC50>
> 260 µM (inactive)

$$$$
>  <molecule>
Oc1cc(CSc2ccc(Cl)cc2)nc(-c2ccccn2)n1

>  <test-system>
Heat shock factor protein 1 (Mus musculus, UniProt P38532)

>  <EC50>
5.93 µM (active)

$$$$

###

Target: Caspase-3 (Homo sapiens, UniProt P42574);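 note: Dose-response selectivity test against caspase-3 for candidate inhibitors of sentrin-specific proteases (SENPs)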
Sequence (P42574 whole entry): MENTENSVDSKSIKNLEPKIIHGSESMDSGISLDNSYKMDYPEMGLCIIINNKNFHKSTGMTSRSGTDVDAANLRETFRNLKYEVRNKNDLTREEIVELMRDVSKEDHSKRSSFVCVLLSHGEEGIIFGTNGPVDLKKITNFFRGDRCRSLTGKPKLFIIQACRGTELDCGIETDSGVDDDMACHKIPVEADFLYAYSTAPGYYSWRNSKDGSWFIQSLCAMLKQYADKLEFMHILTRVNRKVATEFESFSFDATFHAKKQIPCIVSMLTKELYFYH
Assay type: functional
Active and inactive are the calls of the source.
quantity-measured: IC50

>  <smiles-entry>
Cc1ccc(-c2cc(-c3ccccc3)no2)cc1

>  <value-reported>
21.7 µM (active)

$$$$
>  <smiles-entry>
CSc1ccccc1NC(=O)c1cc(C2CC2)on1

>  <value-reported>
18.6 µM (active)

$$$$
>  <smiles-entry>
COc1ccc(/C(C)=N/OCC(=O)Nc2nc3ccccc3s2)cc1OC

>  <value-reported>
49.3 µM (active)

$$$$
>  <smiles-entry>
CCOC(=O)Nc1ccc(C(=O)Oc2ccccc2)c(O)c1

>  <value-reported>
61.3 µM (active)

$$$$
>  <smiles-entry>
COc1cc([N+](=O)[O-])ccc1N/C=C/C(=O)c1cccs1

>  <value-reported>
1.53 µM (active)

$$$$
>  <smiles-entry>
CCOc1ccccc1NC(=O)Nc1ccc2c(c1)CCC2

>  <value-reported>
30.8 µM (active)

$$$$

###

Target: Calpain-2 catalytic subunit (Sus scrofa)
Sequence (P43367 whole entry): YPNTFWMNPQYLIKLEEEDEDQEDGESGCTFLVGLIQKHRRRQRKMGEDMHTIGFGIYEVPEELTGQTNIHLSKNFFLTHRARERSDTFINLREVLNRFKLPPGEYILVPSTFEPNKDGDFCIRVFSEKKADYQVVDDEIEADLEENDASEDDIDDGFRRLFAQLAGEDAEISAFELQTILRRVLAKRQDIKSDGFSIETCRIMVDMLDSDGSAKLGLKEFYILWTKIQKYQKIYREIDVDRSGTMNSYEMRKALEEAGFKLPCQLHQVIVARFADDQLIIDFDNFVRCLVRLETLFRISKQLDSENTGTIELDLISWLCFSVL
Assay: pig calpain II inhibitor potency, dose response, biochemical, fluorogenic peptide substrate (AID 1420)
Type: functional
Active and inactive are the calls of the source.

>  <molecule>
O=C(NCc1ccccc1Cl)C1CCCN(c2nc3ccsc3c(=O)s2)C1 (stereo not given)

>  <IC50>
15.9 µM (not active)

$$$$
>  <molecule>
CCCCNC(=S)N/N=C/c1ccccc1F

>  <IC50>
5.17 µM (active)

$$$$
>  <molecule>
Cc1cc(C)c(NC(=O)/C(=C/c2ccccc2)c2ccccc2)c(C)c1

>  <IC50>
> 50 µM (not active)

$$$$
>  <molecule>
CCc1cc2c3c(c1)C(C)CC(C)(C)N3C(=O)/C2=C1\SC(=O)NC1=O (stereo not given)

>  <IC50>
14.3 µM (not active)

$$$$
>  <molecule>
O=[N+]([O-])c1ccc(OCC(O)CN2CCN(c3ccccc3F)CC2)cc1 (stereo not given)

>  <IC50>
> 50 µM (not active)

$$$$
>  <molecule>
COc1cccc(/N=c2\oc3ccc(OC)cc3cc2-c2nc3ccccc3[nH]2)c1

>  <IC50>
7.91 µM (active)

$$$$
>  <molecule>
Cc1ccc(-c2nc3c(c(=O)[nH]c(=O)n3CC(C)C)n2CC(C)C)cc1[N+](=O)[O-]

>  <IC50>
16.1 µM (not active)

$$$$
>  <molecule>
CCNC1=C(Cl)C(=O)c2ccccc2C1=O

>  <IC50>
> 50 µM (not active)

$$$$
>  <molecule>
Cc1cc(NC(=O)COC(=O)C(Nc2ccc(C(F)(F)F)cc2Cl)C(C)C)no1 (stereo not given)

>  <IC50>
9.49 µM (not active)

$$$$
>  <molecule>
CCN(CC(O)Cn1c2ccccc2c2ccccc21)S(=O)(=O)c1ccc(F)cc1 (stereo not given)

>  <IC50>
6.55 µM (not active)

$$$$
